Entry source: patent US11566007B2

# EXPERIMENTAL SYSTEM: KRAS G12V (Homo sapiens (Human), UniProt P01116+P62937, G12V)
# Sequence (P01116-2 other isoform, or with tags, fused parts or gaps G12V): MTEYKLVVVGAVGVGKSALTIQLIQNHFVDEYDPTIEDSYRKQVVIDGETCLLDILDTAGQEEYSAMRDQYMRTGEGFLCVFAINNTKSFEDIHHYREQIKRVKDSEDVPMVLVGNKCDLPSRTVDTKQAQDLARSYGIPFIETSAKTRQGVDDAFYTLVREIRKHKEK
# Sequence (P62937 whole entry): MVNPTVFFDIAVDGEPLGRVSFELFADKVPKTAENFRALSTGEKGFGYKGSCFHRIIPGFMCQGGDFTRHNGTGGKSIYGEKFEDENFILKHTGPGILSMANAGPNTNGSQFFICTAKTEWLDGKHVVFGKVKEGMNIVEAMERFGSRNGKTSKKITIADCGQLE
# METHOD NOTES: Ras-Raf (BRAF RBD) disruption / FRET / MOA assay, KRAS G12V
# Format: biochemical
# RECORDED CONDITIONS: read-out: IC50* KRAS G12V FRET data
So I've got a bunch of compounds here, and I need their IC50 values.

Solved entries (count: 2):
Prompt: If you can, please state the reported IC50 value of C=CC(=O)N1CC[C@H](C(=O)N(C)[C@H](C(=O)N[C@H]2Cc3cccc(c3)-c3ccc4c(c3)c(c(-c3cc5c(nc3[C@H](C)OC)CN(C)CC5)n4CC)CC(C)(C)COC(=O)[C@@H]3CCCN(N3)C2=O)C(C)C)C1 (atropisomer, axis not shown) .
Response: 1 to 10 µM

Prompt: Could you tell me which IC50 is on file for "CCn1c(-c2cccnc2COC)c2c3cc(ccc31)-c1cc(O)cc(c1)C[C@H](NC(=O)[C@@H](C(C)C)N(C)C(=O)[C@H]1C[C@@H](C)N(C(=O)C#CCN(C)C)C1)C(=O)N1CCC[C@H](N1)C(=O)OCC(C)(C)C2" ?
Response: > 10 µM

Dear colleague, could you please provide IC50 for the compounds listed below?
1. C=CS(=O)(=O)N1CCC2(CCN([C@H](C(=O)N[C@H]3Cc4cc(O)cc(c4)-c4ccc5c(c4)c(c(-c4cccnc4[C@H](C)OC)n5CC)CC(C)(C)COC(=O)[C@@H]4CCCN(N4)C3=O)C(C)C)C2=O)C1 (stereo partly shown)
2. C=CC(=O)N(C)C1CN(C(=O)N(C)[C@H](C(=O)N[C@H]2Cc3nc(cs3)-c3ccc4c(c3)c(c(-c3cccnc3[C@H](C)OC)n4CC)CC(C)(C)COC(=O)[C@@H]3CCCN(N3)C2=O)C(C)C)C1 (atropisomer, axis not shown)

Response:
1. 0.01 to 0.1 µM
2. 0.1 to 1 µM

----------
# EXPERIMENTAL SYSTEM: KRAS WT (Homo sapiens (Human), UniProt P01116+P62937)
# Sequence (P01116-2 other isoform, or with tags, fused parts or gaps): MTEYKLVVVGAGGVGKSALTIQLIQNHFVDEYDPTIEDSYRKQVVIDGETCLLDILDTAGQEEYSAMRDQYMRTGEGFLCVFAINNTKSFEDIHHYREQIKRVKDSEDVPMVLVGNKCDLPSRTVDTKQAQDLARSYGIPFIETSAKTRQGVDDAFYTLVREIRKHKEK
# Sequence (P62937 whole entry): as the sequence (P62937 whole entry) above
# METHOD NOTES: Ras-Raf (BRAF RBD) disruption / FRET / MOA assay, KRAS WT
# Format: biochemical
# RECORDED CONDITIONS: read-out: IC50* KRAS WT FRET data
MEASURED QUANTITY: IC50

Use the examples below as a reference point.
Prompt: # lookup: IC50 of C=CC(=O)N1CC[C@H](C(=O)N(C)[C@H](C(=O)N[C@H]2Cc3cc(O)cc(c3)-c3ccc4c(c3)c(c(-c3cc(CN(C)C)cnc3[C@H](C)OC)n4CC)CC(C)(C)COC(=O)[C@@H]3CCCN(N3)C2=O)C(C)C)C1 (atropisomer, axis not shown) [Example A537]
Response: 10 to 100 nM

Prompt: Need IC50 of C=CC(=O)N1CC(OCC(C(=O)N[C@H]2Cc3cc(cc(C(F)F)c3)-c3ccc4c(c3)c(c(-c3cccnc3[C@H](C)OC)n4CC(F)(F)F)CC(C)(C)COC(=O)[C@@H]3CCCN(N3)C2=O)C(C)C)C1 (mixture of isomers) [Example A428] , thanks.
Response: > 10000 nM

Prompt: For the compound shown here, C=CC(=O)N1CC[C@H](C(=O)N(C)[C@H](C(=O)N[C@H]2Cc3cccc(c3)-c3ccc4c(c3)c(c(-c3ccccc3[C@H](C)OC)n4CC)CC(C)(C)COC(=O)[C@@H]3CCCN(N3)C2=O)C(C)C)C1 (atropisomer, axis not shown) [Example A114] , give the reported IC50.
Response: > 10000 nM

***
Prompt: What value of measured IC50 is listed for CO[C@@H](C)c1ncccc1-c1c2c3cc(ccc3n1CC(F)(F)F)-c1nc(cs1)C[C@H](NC(=O)[C@H](C(C)C)N(C)C(=O)[C@H]1CCN(C(=O)C#CC(C)(C)N3CCC3)C1)C(=O)N1CCC[C@H](N1)C(=O)OCC(C)(C)C2 (atropisomer, axis not shown) [Example A454] ?
Response: 100 to 1000 nM
